The origin of these recorded values is the Human Domainome abundance scans (Beltran et al. 2025).

variants and their reported abundance fitness
B1: POU domain, class 5, transcription factor 1, residues 134 to 212; numbered along this chain, Q01860 (parent)
chain: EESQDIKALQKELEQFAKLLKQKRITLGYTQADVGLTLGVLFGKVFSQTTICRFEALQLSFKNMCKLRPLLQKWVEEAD

Variants of: B1
Assay: abundance fitness (aPCA) (normalised: wild type 0, dead -1); higher = more abundant; growth selection in yeast, the domain comes from the species named
Conditions: Homo sapiens
Reply with the value as a number alone.

Consider the following illustrative entries.
sequence_code="EESQDIKALQKELEQFAKLLKQKRITLGYTQADVGFTLGVLFGKVFSQTTICRFEALQLSFKNMCKLRPLLQKWVEEAD [L36F]" measured_attribute="abundance fitness" measured_result=0.013
sequence_code="EESQDIKALQKPLEQFAKLLKQKRITLGYTQADVGLTLGVLFGKVFSQTTICRFEALQLSFKNMCKLRPLLQKWVEEAD [E12P]" measured_attribute="abundance fitness" measured_result=-0.473
sequence_code="EESQDIKALQKELEQFAKLLKQKRITLGYTQADVGLTLGVLFGKVFSQTTICRFEALQLSFKNNCKLRPLLQKWVEEAD [M64N]" measured_attribute="abundance fitness" measured_result=-0.608
sequence_code="EESQDIKALQKELEQFAKLLKQKRITLGYTQADVGLTLGVLFGKVDSQTTICRFEALQLSFKNMCKLRPLLQKWVEEAD [F46D]" measured_attribute="abundance fitness" measured_result=0.136
sequence_code="EESQDIKALQKELEQFAKLLKQKRITLGYTQADVGLTLGVLFGKVFSQTTICRFEALQLSFKNMCKLRPPLQKWVEEAD [L70P]" measured_attribute="abundance fitness" measured_result=-0.364
sequence_code="EESQDIKALQKELEQFAKLLKQKRITLGITQADVGLTLGVLFGKVFSQTTICRFEALQLSFKNMCKLRPLLQKWVEEAD [Y29I]" measured_attribute="abundance fitness" measured_result=-0.771
sequence_code="EESQDIKALQKELEQFAKLLKQKRITLGYTQADVGLTLGVLFGKKFSQTTICRFEALQLSFKNMCKLRPLLQKWVEEAD [V45K]" measured_attribute="abundance fitness" measured_result=0.085
sequence_code="EESQDIKALQKELEQFAKLLKQKRITLGYTQADVGLTLGVLFGKVFSQTTICRFEAAQLSFKNMCKLRPLLQKWVEEAD [L57A]" measured_attribute="abundance fitness" measured_result=-0.58

Ask: Return reported abundance fitness; argument: EESQDIKALQKELEQFAKLLKQKRITLGYTQAKVGLTLGVLFGKVFSQTTICRFEALQLSFKNMCKLRPLLQKWVEEAD [D33K]
Result: 0.128

Ask: Here is the next variant: EESQDIKALQKELEQFAKLLKQKRITLGYTQADVGLTLGVLFGKVFSQTTICRFEALQLSMKNMCKLRPLLQKWVEEAD [F61M]
Result: 0.04

Ask: Here is the next variant: EESQDIKALQKECEQFAKLLKQKRITLGYTQADVGLTLGVLFGKVFSQTTICRFEALQLSFKNMCKLRPLLQKWVEEAD [L13C]
Result: -0.806
